Where do the numbers come from? From patent US20250197451A1.

- target: T1, biotin-labelled EZH2 protein (UniProt Q15910 1-746, limits assumed, biotin label (EZ-link NHS-PEO4-Biotinylation kit))
- T1 construct: Probe in solution (1 ug/ml) on the KDM2B peptide microarray; also called NHS-PEO4-Biotinylation-labelled EZH2 protein; recombinant protein
- T1 sequence (Q15910 whole entry): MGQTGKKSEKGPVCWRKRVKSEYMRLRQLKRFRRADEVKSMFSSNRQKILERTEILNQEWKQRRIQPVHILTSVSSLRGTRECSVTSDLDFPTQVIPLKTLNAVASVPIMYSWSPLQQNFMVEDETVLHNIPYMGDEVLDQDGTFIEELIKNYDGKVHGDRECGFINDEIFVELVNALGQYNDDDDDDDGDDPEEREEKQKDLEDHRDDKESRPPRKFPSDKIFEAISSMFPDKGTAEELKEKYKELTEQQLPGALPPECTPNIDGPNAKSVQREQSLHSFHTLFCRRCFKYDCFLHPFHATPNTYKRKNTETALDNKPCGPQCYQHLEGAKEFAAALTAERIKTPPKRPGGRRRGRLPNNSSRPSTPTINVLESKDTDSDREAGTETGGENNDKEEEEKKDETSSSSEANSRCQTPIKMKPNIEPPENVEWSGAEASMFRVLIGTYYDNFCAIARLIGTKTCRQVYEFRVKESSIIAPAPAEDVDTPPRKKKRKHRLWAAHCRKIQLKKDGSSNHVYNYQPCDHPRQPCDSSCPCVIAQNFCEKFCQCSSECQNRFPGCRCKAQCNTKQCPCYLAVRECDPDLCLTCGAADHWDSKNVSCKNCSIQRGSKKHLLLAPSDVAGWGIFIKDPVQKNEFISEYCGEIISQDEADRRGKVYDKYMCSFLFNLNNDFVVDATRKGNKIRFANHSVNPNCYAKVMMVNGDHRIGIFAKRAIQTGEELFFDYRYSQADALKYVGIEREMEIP
- assay_name: KDM2B peptide array probed with biotin-EZH2 1 ug/ml, SA-HRP/ECL;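 further: 100% is the highest background-corrected spot optical density on the membrane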;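 further: Background-corrected optical density of each spot on the membrane, given as percent of the brightest spot (100%), color developed for 5 minutes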
Give measured Intensity (%) for each item. Keep answers brief.
Provide the reading as a plain figure in %.

Sample QEPAKRRSECEEAPR [peptide 153] — what was its Intensity (%)?
41.6

Now the same for VELRLAGLDITDASL [peptide 244]
0.9

Now the same for PPDGLLRRKSDDVHL [peptide 158]
0

Now the same for YNVISLEFSHTKLEH [peptide 35]
5.95

Now the same for LPHTAVCLVCGEAGK [peptide 132]
100

Now the same for RMKQSCIMRQCIAPV [peptide 129]
9.37

Now the same for SKLHLSYCNHVTDQS [peptide 249]
0

Now the same for MAGPQMGGSAEDHPP [peptide 1]
0.25

Now the same for KKVKMRRKRRLPNKE [peptide 187]
0.95

Now the same for KKCVPEGIEDPQALL [peptide 107]
0

Now the same for LVGSRRLVDVMDVNT [peptide 27]
0

Now the same for LALYEEWVLSGKQSD [peptide 55]
0

Now the same for YFQQQLKPGKEDKLF [peptide 171]
0

Now the same for GPEEKKKVKMRRKRR [peptide 186]
0

Now the same for WYHVFRGGKIFWLIP [peptide 51]
0

Now the same for AVGRPKGKLGPASAV [peptide 117]
0
